Target: GABA-A receptor; alpha-1/beta-2/gamma-2 (Homo sapiens) (UniProt P14867+P47870+P18507)
Assay: Agonist activity at human recombinant GABAA alpha-1-beta-2-gamma-2L receptor expressed in Xenopus oocytes assessed as change in GABA-induced chloride current amplitude at 1 uM by voltage clamp technique
Type: functional, cell-based
Settings: Oocyte
OUTCOME MEASURE: Activity (%)
Answers are plain numbers, in %.

These solved cases illustrate the format of a correct answer.
COMPOUND	MEASUREMENT UNIT	RESULT VALUE
CN(C(=O)Cc1c(-c2ccc(O)cc2)nc2c(Cl)cc(Cl)cn12)c1ccccc1	%	-5.9
CCCN(CCC)C(=O)Cc1c(-c2ccc(Cl)c([N+](=O)[O-])c2)nc2c(Cl)cc(Cl)cn12	%	14.9
CCCCN(C)C(=O)Cc1c(-c2ccc(Cl)c(N)c2)nc2c(Cl)cccn12	%	9.5
CCCN(CCC)C(=O)Cc1c(-c2ccc(O)cc2)nc2c(Cl)cc(Cl)cn12	%	-3.9
CCCCN(C)C(=O)Cc1c(-c2ccc(Cl)c([N+](=O)[O-])c2)nc2c(Cl)cc(Cl)cn12	%	-10.2
CCCN(CCC)C(=O)Cc1c(-c2ccc(Cl)cc2)nc2c(NC(=O)CCCC(=O)O)cccn12	%	7.3
CCCN(CCC)C(=O)Cc1c(-c2nccs2)nc2c(Cl)cc(Cl)cn12	%	6.3
CCCN(CCC)C(=O)Cc1c(-c2ccc(OC(=O)CCC(=O)OC)cc2)nc2c(Cl)cc(Cl)cn12	%	16.6
CCCCN(C)C(=O)Cc1c(-c2ccc(OC)cc2)nc2c(Cl)cc(Cl)cn12	%	24.8
CCCN(CCC)C(=O)Cc1c(-c2ccc([N+](=O)[O-])cc2)nc2c(Cl)cc(Cl)cn12	%	-4.2

Could you report Activity for every entry in the following list?
1. CCCN(CCC)C(=O)Cc1c(-c2ccc(OC)cc2)nc2c(Cl)cc(Cl)cn12
2. CCCN(CCC)C(=O)Cc1c(-c2ccc(Cl)cc2)nc2c(NC(=O)CC(=O)O)cccn12
3. CCCN(CCC)C(=O)Cc1c(-c2ccc(Cl)c(NC(=O)CCC(=O)O)c2)nc2c(Cl)cc(Cl)cn12
4. COc1ccc(-c2nc3c(Cl)cc(Cl)cn3c2CC(=O)N(C)c2ccccc2)cc1

a:
1. 8.8
2. 9.6
3. 11.5
4. -8.1
